Consider the following binders; for each one, report its Kd.
Molecular target: T1, DR3-8i (human)
T1 construct: also called purified monomeric DR3-8i antigen protein
T1 chain: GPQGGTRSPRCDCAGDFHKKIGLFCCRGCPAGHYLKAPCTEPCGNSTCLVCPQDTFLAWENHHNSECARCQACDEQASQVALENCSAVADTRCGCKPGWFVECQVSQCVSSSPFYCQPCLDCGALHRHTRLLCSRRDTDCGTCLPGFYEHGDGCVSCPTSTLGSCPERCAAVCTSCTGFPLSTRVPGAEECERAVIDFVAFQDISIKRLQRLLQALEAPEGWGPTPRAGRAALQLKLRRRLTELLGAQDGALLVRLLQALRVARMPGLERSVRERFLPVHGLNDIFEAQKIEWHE
Assay: BLI, IgG captured on protein A, DR3-8i in solution; Experiment 2
Give just the numeric value; nM need not be written.

Note to self: Kd recorded for VHg6/VLg11 (antibody, human IgG1, V domains shown, human IgG1) VH: QVQLQQSGGGLVQPGGSLRLSCAASGFTFSSYAMSWVRQAPGKGLEWVATISDGDSYSYFPDSVKDRFTISRDNARNSLYLQMNSLRAEDTAVYYCARDRIYGSVQYYAMDYWGRGTLVTVSS VL: DIVMTQSPDSLAVSLGERATINCRASESVEFSGTSLMQWYQQKPGQPPKLLIYAASNVESGVPDRFSGSGSGTDFTLTISSLQAEDVAVYYCQQSRKLPYTFGQGTKLEIK was 0.0999

Note to self: Kd recorded for VHg2/VLs10 (antibody, human IgG1, V domains shown, human IgG1; also called VHg2_VLg10) VH: QMQLVQSGGGLVKPGGSLRLSCAASGFTFSSYAMSWIRQAPGKGLEWVSTISDGDSYSYFPDSVKDRFTISRDNAKNSLYLQMNSLRAEDTAVYYCTRDRIYGSVQYYAMDYWGRGTLVTVSS VL: ETTLTQSPGTLSLSPGERATLSCRASQSVSSSSLAWYQQKPGQAPRLLIYGASSRATGIPDRFSGSGSGTDFTLTISRLEPEDFAVYYCHQYGGSWTFGKGTKVEIK was 0.42

Cited source for all entries: patent WO2025083273A1
